Reported Population Hoechst High Intensity Objects (%) values for a set of molecules
Test system: U2OS
Assay: Multiplex assay against U2OS
Type: toxicity, cell-based
Settings: human, 24 h, 10 µM, compound concentration 10 uM, replicate 1
The reply should be a number in %, with the unit left off.

Known Population Hoechst High Intensity Objects (%) results, listed for orientation:
molecule	valueReported
CCCN1CCC[C@@H]2Cc3n[nH]cc3C[C@H]21.Cl [QUINPIROLE HYDROCHLORIDE]	2
C[C@@H]1C[C@H]2[C@@H]3CCC4=CC(=O)C=C[C@]4(C)[C@@]3(F)[C@@H](O)C[C@]2(C)[C@@]1(O)C(=O)CO	1
COc1c(C)cc(NC(=O)c2nn(Cc3ccc(F)cc3)c3c2CN(C(=O)c2ccc[nH]2)C[C@]3(C)C(N)=O)cc1C	12
O=C(NCCO)c1cccc(-c2cc(Nc3ccc(OC(F)(F)F)cc3)ncn2)c1	4
Cc1nc2ccc(Oc3ccc(F)cc3)cc2c(=O)n1C[C@H]1CCCN(C(C)C)C1.Cl	4

// query For the molecule shown here, `CC(C)(C)c1ccc(S(=O)(=O)Nc2ccc(Cl)cc2C(=O)c2cc[n+]([O-])cc2)cc1` , give the reported Population Hoechst High Intensity Objects (%).
// result 2

// query Let us now turn to `O=C(NCC(=O)N1CC[C@H](N[C@H]2CC[C@@](O)(c3ccc(-c4ncccn4)cn3)CC2)C1)c1cccc(C(F)(F)F)c1`
// result 3

// query Let us now turn to `Cc1ccc(/C(=C\CN2CCCC2)c2ccccn2)cc1`
// result 2

* * *

System: Fibroblast
Assay: Multiplex assay against human fibroblast
Format: toxicity, cell-based
Conditions: 24 h, 1 µM, compound concentration 1 uM, replicate 2
measureName: Population Mitotic Cells (%)
The reply should be a number in %, with the unit left off.

Known Population Mitotic Cells (%) results, listed for orientation:
compound	valueReported
CN1CCN2c3ncccc3Cc3ccccc3C2C1 (centres undefined) [MIRTAZAPINE]	51
O=C(O)c1cc2ccccc2c(Cc2c(O)c(C(=O)O)cc3ccccc23)c1O [PAMOIC ACID]	68
CN(C)CCCc1cc(C(=O)Nc2ccc(-c3ccncc3)cc2)ccc1O.Cl.Cl	62
C[C@H](NC(=O)c1c(C(F)F)nn(C)c1Oc1cccc(C(F)(F)F)c1)c1ccc(C(=O)O)cc1 [PALUPIPRANT]	57

// query For the compound shown here, COc1cc(NC(=O)CCN2CCC(OC(=O)Nc3ccccc3-c3ccccc3)CC2)c(Cl)cc1CNC[C@H](O)c1ccc(O)c2[nH]c(=O)ccc12 [BATEFENTEROL] , give the reported Population Mitotic Cells (%).
// result 50

// query Let us now turn to Cc1ccc(F)cc1C(=O)Nc1ccc(C(=O)N2Cc3cccn3Cc3ccccc32)c(Cl)c1 [LIXIVAPTAN]
// result 67

// query Let us now turn to Cc1ccc(C(C)(O)c2nc3ccccc3s2)c(C)c1 (centres undefined)
// result 52

// query Let us now turn to CC1(COc2ccc3c(c2)ncn3-c2ccc3cccc(N4CCC(N)CC4)c3n2)COC1 [CRENOLANIB]
// result 50

// query Let us now turn to CC(=O)NCCc1c(Cc2ccccc2)[nH]c2ccccc12 [LUZINDOLE]
// result 54

* * *

System: Fibroblast
Test: Multiplex assay against human fibroblast
Assay type: toxicity, cell-based
Details: 12 h, 10 µM, compound concentration 10 uM, replicate 2
Reported Population Membrane Permeable-Phenotype (%) values for a set of compounds

Known Population Membrane Permeable-Phenotype (%) results, listed for orientation:
compoundStructure	valueReported
O=C(NCCO)c1cccc(-c2cc(Nc3ccc(OC(F)(F)F)cc3)ncn2)c1	11%
COc1cc(NC(=O)CCN2CCC(OC(=O)Nc3ccccc3-c3ccccc3)CC2)c(Cl)cc1CNC[C@H](O)c1ccc(O)c2[nH]c(=O)ccc12	1%

// query For the compound shown here, `Oc1c(CN2CCN(c3ccccn3)CC2)cc(Cl)c2cccnc12` , give the reported Population Membrane Permeable-Phenotype (%).
// result 2%

* * *

Test system: Fibroblast
Experiment: Multiplex assay against human fibroblast
Format: toxicity, cell-based
Conditions: 12 h, 10 µM, compound concentration 10 uM, replicate 2
measureName: Total Cell Count
Quick one: just the number, no unit, thanks!

Known Total Cell Count results, listed for orientation:
compound	valueReported
Cc1ccc(F)cc1C(=O)Nc1ccc(C(=O)N2Cc3cccn3Cc3ccccc32)c(Cl)c1 [LIXIVAPTAN]	179
CCCN1CCC[C@@H]2Cc3n[nH]cc3C[C@H]21.Cl [QUINPIROLE HYDROCHLORIDE]	184
CC[C@H]1OC(=O)[C@H](C)[C@@H](O[C@H]2C[C@@](C)(OC)[C@@H](O)[C@H](C)O2)[C@H](C)[C@@H](O[C@@H]2O[C@H](C)C[C@H](N(C)C)[C@H]2O)[C@@]2(C)CC(C)=C(O2)[C@H](C)[C@@H](O)[C@]1(C)O	133
CN1CCN2c3ncccc3Cc3ccccc3C2C1 (stereo unspecified) [MIRTAZAPINE]	140
Cc1nc2ccc(Oc3ccc(F)cc3)cc2c(=O)n1C[C@H]1CCCN(C(C)C)C1.Cl	205
CSc1ccccc1N1CCN(CCCCCC(=O)NC2CCCc3ccccc32)CC1.Cl (stereo unspecified)	242
O=C(NCC(=O)N1CC[C@H](N[C@H]2CC[C@@](O)(c3ccc(-c4ncccn4)cn3)CC2)C1)c1cccc(C(F)(F)F)c1 [PF-4136309]	128
Cl.Clc1ccc2nsnc2c1NC1=NCCN1 [TIZANIDINE HYDROCHLORIDE]	143

// query For the compound shown here, `CSCC[C@H](NC=O)C(=O)N[C@@H](CC(C)C)C(=O)N[C@@H](Cc1ccccc1)C(=O)O` , give the reported Total Cell Count.
// result 315

// query Let us now turn to `CCCn1c(=O)c2[nH]c(C3CCCC3)nc2n(CCC)c1=O`
// result 129

// query Let us now turn to c1cc(OCCCN2CCCCC2)ccc1CN1CCCCC1 [JNJ-5207852]
// result 114

// query Let us now turn to `CN1CCN(c2nc3cc(C(F)(F)F)ccc3n3cccc23)CC1.O=C(O)/C=C\C(=O)O.O=C(O)/C=C\C(=O)O`
// result 117

// query Let us now turn to COc1cc(NC(=O)CCN2CCC(OC(=O)Nc3ccccc3-c3ccccc3)CC2)c(Cl)cc1CNC[C@H](O)c1ccc(O)c2[nH]c(=O)ccc12 [BATEFENTEROL]
// result 128

// query Let us now turn to `O=C1COc2nccc(-c3ccccc3F)c2CN1Cc1cc(C(F)(F)F)cc(C(F)(F)F)c1`
// result 132

// query Let us now turn to COc1ccc2c(c1)C(C(=O)N(Cc1ccc(N(C)C)cc1)c1ccc(C(C)C)cc1)CCC2.Cl (stereo unspecified)
// result 148

// query Let us now turn to `COc1c(C)cc(NC(=O)c2nn(Cc3ccc(F)cc3)c3c2CN(C(=O)c2ccc[nH]2)C[C@]3(C)C(N)=O)cc1C`
// result 115

* * *

System: HEK-293T
Experiment: Multiplex assay against HEK293T
Format: toxicity, cell-based
Conditions: human, 24 h, 1 µM, compound concentration 1 uM, replicate 1
measureName: Population Pyknosed Nuclei (%)
The reply should be a number in %, with the unit left off.

Known Population Pyknosed Nuclei (%) results, listed for orientation:
molecule	unitOfMeasure	Population Pyknosed Nuclei (%)
CCCC(CCC)C(=O)O	%	12
Cc1ccc(F)cc1C(=O)Nc1ccc(C(=O)N2Cc3cccn3Cc3ccccc32)c(Cl)c1	%	13
CSc1ccccc1N1CCN(CCCCCC(=O)NC2CCCc3ccccc32)CC1.Cl (centres undefined)	%	11
Cc1ccccc1C(=O)Nc1ccc(C(=O)N2CCCC(N(C)C)c3ccccc32)cc1.Cl (centres undefined)	%	8
CC(C)(C)c1ccc(S(=O)(=O)Nc2ccc(Cl)cc2C(=O)c2cc[n+]([O-])cc2)cc1	%	9
CN(C)CCCc1cc(C(=O)Nc2ccc(-c3ccncc3)cc2)ccc1O.Cl.Cl	%	10

// query Give the reported Population Pyknosed Nuclei (%) for `CCNC1(C(N)=O)CCN(c2ncnc3c2nc(-c2ccccc2Cl)n3-c2ccc(Cl)cc2)CC1` (system: HEK-293T).
// result 11

// query Let us now turn to O=S(=O)(c1ccccc1)c1cnc2c(N3CCNCC3)cccc2c1 [INTEPIRDINE]
// result 12

// query Let us now turn to `O=C(NCC(=O)N1CC[C@H](N[C@H]2CC[C@@](O)(c3ccc(-c4ncccn4)cn3)CC2)C1)c1cccc(C(F)(F)F)c1`
// result 9

* * *

System: Fibroblast
Experiment: Multiplex assay against human fibroblast
Type: toxicity, cell-based
Settings: 24 h, 1 µM, compound concentration 1 uM, replicate 1
Reported Population Membrane Permeable-Phenotype (%) values for a set of molecules

Known Population Membrane Permeable-Phenotype (%) results, listed for orientation:
molecule	valueReported
O=C(O)Cc1ccccc1Nc1c(Cl)cccc1Cl [DICLOFENAC]	0%
CCCC(CCC)C(=O)O [VALPROIC ACID]	1%
COc1c(C)cc(NC(=O)c2nn(Cc3ccc(F)cc3)c3c2CN(C(=O)c2ccc[nH]2)C[C@]3(C)C(N)=O)cc1C	1%

Consider now this further molecule.
// query For the molecule shown here, CCCN1CCC[C@@H]2Cc3n[nH]cc3C[C@H]21.Cl [QUINPIROLE HYDROCHLORIDE] , give the reported Population Membrane Permeable-Phenotype (%).
// result 0%
